Tested on: Zika virus NS2B-NS3 protease (unlinked)
Experiment: Optimization of GU AMC qHTS for Zika virus inhibitors: Unlinked NS2B-NS3 protease assay (AID 1347151); further: nearly all actives have a fitted effect of over 80% in size
Conditions: recombinant ZIKV NS2B-NS3 protease, fluorogenic AMC substrate; series mostly up to 52.5 µM
Inconclusive results are not listed. The source made the active and inactive calls. The call rests on the fitted dose curve; in most records, active means well fitted inhibition curve with a large enough effect; inconclusive means small, poorly fitted or top-dose-only effect; inactive means no such curve, though single readings can be large or run the other way.
Classes to choose from: y = active, n = inactive

The examples below pair each entry with its known result.
[
  {
    "Smiles structure": "Cn1cc(C(=O)OCC2CCN(CCNS(C)(=O)=O)CC2)c2ccccc21",
    "Class label": "n"
  },
  {
    "Smiles structure": "C[C@]12C=CC(=O)C=C1CC[C@@H]1C2=CC[C@]2(C)[C@@H](C(=O)CN3CCN(c4cc(N5CCCC5)nc(N5CCCC5)n4)CC3)CC[C@@H]12",
    "Class label": "n"
  },
  {
    "Smiles structure": "C=CCN1CCc2c(cc(O)c(O)c2Br)[C@@H](c2ccccc2)C1",
    "Class label": "y"
  },
  {
    "Smiles structure": "NOCC(=O)O",
    "Class label": "n"
  },
  {
    "Smiles structure": "O=c1cc(O)cc(/C=C/c2ccc(O)c(O)c2)o1",
    "Class label": "y"
  }
]

What outcome does the record of this test show for `NC(=Nc1ccccc1)NC(=O)c1nc(Cl)c(N)nc1N` ? y
